- TESTED TARGET: TEAD1-TEAD (UniProt P28347 28-104)
- Sequence (P28347 28-104): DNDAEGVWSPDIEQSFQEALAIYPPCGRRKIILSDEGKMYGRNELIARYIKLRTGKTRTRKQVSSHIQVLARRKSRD
- MEASUREMENT PROTOCOL: EMSA
QUANTITY KIND: Kd

Req: // query Kd value for entry MCAT (FAM) (dsDNA) DNA 1: AGTGGAATGTGC DNA 2: GCACATTCCACT
Resp: ~90 nM
